Sourced from patent US20230293535A1

GI50: recorded values
Tested on: WT EGFR cell line A-431
Assay: Cell proliferation, WT EGFR A431 (CellTiter-Glo, 72 h);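 further: proliferation from a luminescent ATP viability signal, expressed as 100 × (treated minus time-zero plate) over (DMSO control minus time-zero plate), cells grown with 10% FBS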
Type: cell-based
Conditions: Homo sapiens, A-431, 72 h, A431, 72 h proliferation; read-out: EGFR WT A431 GI50
Give the quantity in nM, number only.

Reference set (10 entries):
INSERT INTO measurements (compound, output_unit, obs_value) VALUES
  ('C=CC(=O)Nc1cc(Nc2ncnc(Nc3cc(F)c(C4CC4)cc3C(C)(C)O)n2)c(OC)cc1N1CC[C@@H]2CN(C)C[C@@H]21', 'nM', 4.3),
  ('C=CC(=O)Nc1cc(Nc2ncnc(Nc3cc(Cl)c(F)cc3C(C)(C)O)n2)c(OC)cc1N1C[C@@H](F)[C@@H](N(C)C)C1', 'nM', 21.5),
  ('C=CC(=O)Nc1cc(Nc2ncnc(Nc3cccnc3C(C)(C)O)n2)c(OC)cc1N(C)CCN(C)C', 'nM', 99.8),
  ('C=CC(=O)Nc1cc(Nc2ncnc(Nc3cc4cc[nH]c4cc3C(C)(C)O)n2)c(OC)cc1N(C)CCN(C)C', 'nM', 2.9),
  ('[2H]C([2H])([2H])N(CCN(C)c1cc(OC)c(Nc2ncnc(Nc3cc(F)c(F)cc3C(C)(C)O)n2)cc1NC(=O)C=C)C([2H])([2H])[2H]', 'nM', 12),
  ('C=CC(=O)Nc1cc(Nc2ncnc(Nc3ccc(C)nc3C(C)(C)O)n2)c(OC)cc1N(C)CCN(C)C', 'nM', 37.9),
  ('C=CC(=O)Nc1cc(Nc2nccc(Nc3cc(Cl)c(F)cc3C(C)(C)O)n2)c(OC)cc1N1CC[C@@H]1CN(C)C', 'nM', 71.8),
  ('Cc1cc(C(=O)Nc2nc3cccc(Cl)c3n2[C@@H]2CCCCN(C(=O)/C=C/CN(C)C)C2)ccn1 [EGF816, reference compound]', 'nM', 265),
  ('C=CC(=O)Nc1cc(Nc2ncnc(Nc3cc(Cl)c(F)cc3C(C)(O)CC)n2)c(OC)cc1N1CCC[C@@H]1CN(C)C (stereo partly shown)', 'nM', 4.4),
  ('C=CC(=O)Nc1cc(Nc2ncnc(Nc3cc(F)c(F)cc3C(C)(O)CC)n2)c(OC)cc1N(C)CCN(C)C (stereo not shown)', 'nM', 15.3);

So, C=CC(=O)Nc1cc(Nc2ncnc(Nc3cc(Cl)c(F)cc3C(C)(C)O)n2)c(OC)cc1N(C)CCN1CCCC1 ? Its GI50 was 20.1

So, C=CC(=O)Nc1cc(Nc2ncc(C(F)(F)F)c(Nc3cc(Cl)c(F)cc3C(C)(C)O)n2)c(OC)cc1N1CC[C@@H](N(C)C)C1 ? Its GI50 was 232

So, C=CC(=O)Nc1cc(Nc2ncnc(Nc3cc(F)c(F)cc3C(C)(O)CC)n2)c(OC)cc1N1CCC[C@@H]1CN(C)C (stereo partly shown) ? Its GI50 was 6.1

----------
Tested on: DB cells
Experiment: BTK (wt) cell proliferation, DB (CellTiter-Glo, 72 h);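 further: DB cells in 384-well plates given a dilution series of compound, viable cells read by ATP luminescence, growth expressed versus DMSO control after subtracting a time-zero plate reading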
Assay type: cell-based
Details: Homo sapiens, DB, DB cells, CellTiter-Glo, read-out: Non-BCR activated DB GI50
Where a name gives a salt, the structure may show the parent alone.
GI50: recorded values

Reference set (2 entries):
INSERT INTO measurements (molecule, obs_value) VALUES
  ('C=CC(=O)Nc1cc(Nc2ncnc(Nc3cc(Cl)c(F)cc3C(C)(C)O)n2)c(OC)cc1N(C)CCN1CCCCC1', '> 3000 nM'),
  ('C=CC(=O)Nc1cc(Nc2ncnc(Nc3ccc4[nH]ccc4c3C(C)(C)O)n2)c(OC)cc1N(C)CCN(C)C', '> 3000 nM');

Reported GI50 (DB cells) for entry C=CC(=O)Nc1cc(Nc2nccc(Nc3cc(Cl)c(F)cc3C(C)(C)O)n2)c(OC)cc1N1C[C@@H]2CN(C)[C@@H]2C1 [Compound 97, formic acid salt] is > 3000 nM

Reported GI50 (DB cells) for entry C=CC(=O)Nc1cc(Nc2ncnc(Nc3cc(Cl)c(F)cc3C(C)(C)O)n2)c(OC)cc1N1CCC[C@@H]1CN(C)C is > 3000 nM

Reported GI50 (DB cells) for entry C=CC(=O)Nc1cc(Nc2ncnc(Nc3cc(Cl)c(F)cc3C(C)(C)O)n2)c(OC)cc1N(C)C[C@H]1CCCN1C is > 3000 nM

Reported GI50 (DB cells) for entry C=CC(=O)Nc1cc(Nc2nccc(Nc3cc(Cl)c(F)cc3C(C)(C)O)n2)c(OC)cc1N1C[C@@H]2CN(C)C[C@@H]21 is 2990 nM

Reported GI50 (DB cells) for entry C=CC(=O)Nc1cc(Nc2ncnc(Nc3cc(F)c(F)cc3C(C)(O)CC)n2)c(OC)cc1N1CC[C@@H](N(C)C)C1 (stereo partly shown) is > 3000 nM

Reported GI50 (DB cells) for entry C=CC(=O)Nc1cc(Nc2ncnc(Nc3cc(F)c(F)cc3C(C)(C)O)n2)c(OC)cc1N(C)CCN1CCCCC1 is > 3000 nM

Reported GI50 (DB cells) for entry C=CC(=O)Nc1cc(Nc2ncnc(Nc3cc(Cl)c(F)cc3C(C)(O)CC)n2)c(OC)cc1N1CCC[C@@H]1CN(C)C (stereo partly shown) is > 3000 nM

Reported GI50 (DB cells) for entry [2H]C([2H])([2H])N(CCN(C)c1cc(OC)c(Nc2ncnc(Nc3cc(F)c(Cl)cc3C(C)(C)O)n2)cc1NC(=O)C=C)C([2H])([2H])[2H] is 2980 nM

Reported GI50 (DB cells) for entry C=CC(=O)Nc1cc(Nc2ncnc(Nc3cc(F)c(F)cc3C(C)(O)CC)n2)c(OC)cc1N1CCC[C@@H]1CN(C)C (stereo partly shown) is > 3000 nM

Reported GI50 (DB cells) for entry C=CC(=O)Nc1cc(Nc2nccc(Nc3cc(Cl)c(F)cc3C(C)(C)O)n2)c(OC)cc1N1CC[C@@H]1CN(C)C is > 3000 nM

Reported GI50 (DB cells) for entry C=CC(=O)Nc1cc(Nc2nccc(Nc3cc(Cl)c(F)cc3C(C)(C)O)n2)c(OC)cc1N1CC(F)(F)C[C@@H]1CN(C)C is > 3000 nM

----------
Test system: NCI-H1975 EGFR L858R/T790M cells
Experiment: Cell proliferation, NCI-H1975 EGFR L858R/T790M (CellTiter-Glo, 72 h);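 further: viable cells quantified by luciferase-based ATP luminescence, proliferation expressed relative to DMSO-treated wells (100%) after subtracting a parallel plate read at the time of dosing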
Type: cell-based
Settings: Homo sapiens, NCI-H1975, 72 h, NCI-H1975, 72 h proliferation; read-out: EGFR L858R and T790M mutation GI50
GI50: recorded values
Give the quantity in nM, number only.

Reference set (5 entries):
INSERT INTO results (compound, parameter_measured, obs_value) VALUES
  ('C=CC(=O)Nc1cc(Nc2nccc(Nc3cc(Cl)c(Cl)cc3C(C)(C)O)n2)c(OC)cc1N1CC[C@@H](N(C)C)C1 [Compound 68]', 'GI50', 2.8),
  ('C=CC(=O)Nc1cc(Nc2ncnc(Nc3cc(Cl)c(F)cc3C(C)(C)O)n2)c(OC)cc1N1CCC[C@@H]1CN(C)C [Compound 31]', 'GI50', 4.2),
  ('C=CC(=O)Nc1cc(Nc2ncnc(Nc3cc4cc[nH]c4cc3C(C)(C)O)n2)c(OC)cc1N(C)CCN(C)C [Compound 95]', 'GI50', 3.7),
  ('C=CC(=O)Nc1cc(Nc2ncnc(Nc3ccccc3C(C)(O)C(F)(F)F)n2)c(OC)cc1N(C)CCN(C)C (stereo not shown) [Compound 66]', 'GI50', 2.3),
  ('C=CC(=O)Nc1cc(Nc2ncc(OC)c(Nc3cc(Cl)c(F)cc3C(C)(C)O)n2)c(OC)cc1N(C)CCN(C)C [Compound 81]', 'GI50', 4.6);

So, C=CC(=O)Nc1cc(Nc2ncnc(Nc3cc(F)c(Cl)cc3C(C)(C)O)n2)c(OC)cc1N1CC[C@@H]1CN(C)C [Compound 62] ? Its GI50 was 3.2

So, C=CC(=O)Nc1cc(Nc2ncnc(Nc3cc4ccn(C)c4cc3C(C)(C)O)n2)c(OC)cc1N(C)CCN(C)C [Compound 32] ? Its GI50 was 1.8

----------
Target: human EGFR exon 20 H773_V774insNPH (Homo sapiens, UniProt P00533, INS773NPH)
Construct: host or cells: Ba/F3
Sequence (P00533 with tags, fused parts or gaps INS773NPH): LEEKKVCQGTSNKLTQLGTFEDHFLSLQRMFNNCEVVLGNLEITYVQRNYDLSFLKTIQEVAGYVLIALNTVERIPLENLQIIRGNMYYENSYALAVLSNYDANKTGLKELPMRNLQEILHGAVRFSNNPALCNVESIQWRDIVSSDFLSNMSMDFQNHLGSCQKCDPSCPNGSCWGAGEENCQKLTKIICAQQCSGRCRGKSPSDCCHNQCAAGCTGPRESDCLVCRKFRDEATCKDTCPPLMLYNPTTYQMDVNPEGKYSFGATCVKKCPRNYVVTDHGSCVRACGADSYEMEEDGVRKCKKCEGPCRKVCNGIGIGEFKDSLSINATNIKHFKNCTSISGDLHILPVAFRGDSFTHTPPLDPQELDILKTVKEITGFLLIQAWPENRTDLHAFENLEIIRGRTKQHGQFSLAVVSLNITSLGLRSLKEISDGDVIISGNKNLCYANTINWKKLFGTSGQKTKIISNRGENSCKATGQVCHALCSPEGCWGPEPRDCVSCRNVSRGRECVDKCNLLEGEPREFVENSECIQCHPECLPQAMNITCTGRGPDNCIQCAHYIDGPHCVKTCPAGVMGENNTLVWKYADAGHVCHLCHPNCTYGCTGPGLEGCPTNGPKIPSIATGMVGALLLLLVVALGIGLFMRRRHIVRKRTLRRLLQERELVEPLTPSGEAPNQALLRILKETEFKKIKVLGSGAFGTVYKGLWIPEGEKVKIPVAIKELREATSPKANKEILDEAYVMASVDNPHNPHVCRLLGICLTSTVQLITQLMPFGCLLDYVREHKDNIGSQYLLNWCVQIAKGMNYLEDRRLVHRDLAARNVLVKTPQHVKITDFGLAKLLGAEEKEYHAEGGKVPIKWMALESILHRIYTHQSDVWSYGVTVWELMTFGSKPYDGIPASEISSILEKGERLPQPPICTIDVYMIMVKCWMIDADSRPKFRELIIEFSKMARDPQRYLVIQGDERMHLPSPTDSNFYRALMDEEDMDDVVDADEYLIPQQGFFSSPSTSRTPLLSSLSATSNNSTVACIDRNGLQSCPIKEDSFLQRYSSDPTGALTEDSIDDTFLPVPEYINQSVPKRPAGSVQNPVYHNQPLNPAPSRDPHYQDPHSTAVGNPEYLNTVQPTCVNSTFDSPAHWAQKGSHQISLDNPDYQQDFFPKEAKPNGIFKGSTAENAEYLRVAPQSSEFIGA
Assay: EGFR Exon20 NPH insertion cellular phosphorylation inhibition (MSD pEGFR Y1068/total EGFR);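 further: IL3-independent Ba/F3 cells with constitutively phosphorylated EGFR, compound exposure at 37 °C under 5% CO2, electrochemiluminescent MSD measurement of the p-EGFR to total EGFR ratio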
Type: cell-based
Details: Ba/F3 EGFR NPH ins cells, 4 h compound, p-EGFR(Y1068)/total EGFR
Counter-ions that a name gives are not always drawn.
Parameter Measured: IC50
Give the value; after it, write the unit.

Reference set (8 entries):
INSERT INTO measurements (molecule, obs_value) VALUES
  ('C=CC(=O)Nc1cc(Nc2nccc(Nc3cc(Cl)c(F)cc3C(C)(C)O)n2)c(OC)cc1N1C[C@@H]2CN(C)[C@@H]2C1 [Compound 97, formic acid salt]', '0.0174 µM'),
  ('C=CC(=O)Nc1cc(Nc2ncnc(Nc3cc(F)c(F)cc3C(C)(C)O)n2)c(OC)cc1N(C)CCN1CCCC1', '0.0611 µM'),
  ('C=CC(=O)Nc1cc(Nc2ncnc(Nc3cc(Cl)c(F)cc3C(C)(O)CC)n2)c(OC)cc1N1CC[C@@H](N(C)C)C1 (single isomer, unassigned) [Compound 69]', '0.0463 µM'),
  ('C=CC(=O)Nc1cc(Nc2ncnc(Nc3cc(Cl)c(F)cc3C(C)(O)CC)n2)c(OC)cc1N1CC[C@@H](N(C)C)C1 (stereo partly shown) [Compound 59]', '0.0164 µM'),
  ('C=CC(=O)Nc1cc(Nc2ncnc(Nc3cccnc3C(C)(C)O)n2)c(OC)cc1N(C)CCN(C)C', '0.0911 µM'),
  ('C=CC(=O)Nc1cc(Nc2ncnc(Nc3ccc(Cl)c(F)c3C(C)(C)O)n2)c(OC)cc1N(C)CCN(C)C', '0.0384 µM'),
  ('C=CC(=O)Nc1cc(Nc2ncnc(Nc3cc(Cl)c(F)cc3C(C)(C)O)n2)c(OC)cc1N1CCC[C@H]1CN(C)C', '0.315 µM'),
  ('C=CC(=O)Nc1cc(Nc2nccc(Nc3cc(Cl)c(F)cc3C(C)(C)O)n2)c(OC)cc1N1CC[C@@H](CN(C)C)C1', '0.0215 µM');

So, C=CC(=O)Nc1cc(Nc2nccc(Nc3cc(Cl)c(Cl)cc3C(C)(C)O)n2)c(OC)cc1N1CC[C@@H](N(C)C)C1 ? Its IC50 was 0.0315 µM

So, C=CC(=O)Nc1cc(Nc2nccc(Nc3cc(Cl)c(F)cc3C(C)(O)CC)n2)c(OC)cc1N1CC[C@@H](N(C)C)C1 (single isomer, unassigned) [Compound 76] ? Its IC50 was 0.0279 µM

So, C=CC(=O)Nc1cc(Nc2ncnc(Nc3cc(Cl)c(F)cc3C(C)(C)O)n2)c(OC)cc1N1CC[C@@H]2CN(C)C[C@@H]21 ? Its IC50 was 0.0506 µM

So, C=CC(=O)Nc1cc(Nc2ncnc(Nc3cc(Cl)c(F)cc3C(C)(O)CC)n2)c(OC)cc1N(C)CCN(C)C (stereo not shown) ? Its IC50 was 0.0136 µM

So, C=CC(=O)Nc1cc(Nc2ncnc(Nc3cc(Cl)c(Cl)cc3C(C)(C)O)n2)c(OC)cc1N1CC[C@@H]1CN(C)C ? Its IC50 was 0.0299 µM
